# Test system: CCRF-CEM
# Measurement Notes: NCI tumour cell line growth inhibition, 48 h
Activity calls are given as the source filed them. No stated cut-off is given here; in the data, active = GI50 up to about 1.1 µM and inactive = higher.
Please provide measured GI50 for the entries that follow.

Fill: GI50 (CCRF-CEM) for this molecule CCCCCCCCC/C=C1/CC(CO)(COC(=O)C2CCCCC2)OC1=O (centres undefined)
> 100 µM (inactive)

Report GI50 from CCRF-CEM testing of `N#CC1=C(O)NC(O)=C(C#N)C1c1ccc(C2C(C#N)=C(O)NC(O)=C2C#N)cc1`
45.3 µM (inactive)

// fetch GI50; item: `O=C(c1ccccc1)n1c2ccc(Br)cc2c2nc3ccccc3nc21` ; system: CCRF-CEM
58.9 µM (inactive)

Please report GI50 with CCRF-CEM for item `CN(C)C(=S)N1C(=S)N(c2ccccc2)C(=N/c2ccccc2)/C1=N\c1ccccc1` .
> 100 µM (inactive)

Give the observed GI50 of COc1ccc(C[C@H]2NC[C@H](O)[C@H]2OC(C)=O)cc1 [ANISOMYCIN] for CCRF-CEM.
< 0.0122 µM (active)

Report value: GI50, system: CCRF-CEM, molecule: O=C1CCCC2C3CC(CN12)C1CCCCN1C3.[O-][Cl+3]([O-])([O-])O (centres undefined)
> 100 µM (inactive)

Write GI50 of `[O-][S@@+]1c2ccc3ccccc3c2N[C@@H]2[C@H]1[C@H]1C=C[C@@H]2C1` ; system used: CCRF-CEM
23.6 µM (inactive)

GET GI50 where system = CCRF-CEM and item = `C[C@]12CC[C@H]3[C@@H](CCC4=CC(=O)CC[C@@]43C)[C@@H]1CC[C@@H]2C(=O)Nc1ccc([N+](=O)[O-])c(C(F)(F)F)c1`
24.7 µM (inactive)

Please look at `O=c1c2ccccc2sc2nc(CCl)nn12` and tell me its recorded GI50 on CCRF-CEM.
> 100 µM (inactive)
